- TARGET: JAK1 (aa 850-1154, catalytic domain, GST-tag) (Homo sapiens, UniProt P23458)
- Construct: JAK1 (aa 850-1154) and TYK2 (aa 871-1187) are expressed with an N-terminally fused GST-tag; GST (N); purchased Carna Biosciences, Inc; host or cells: baculovirus expression system
- Sequence (P23458 850-1154): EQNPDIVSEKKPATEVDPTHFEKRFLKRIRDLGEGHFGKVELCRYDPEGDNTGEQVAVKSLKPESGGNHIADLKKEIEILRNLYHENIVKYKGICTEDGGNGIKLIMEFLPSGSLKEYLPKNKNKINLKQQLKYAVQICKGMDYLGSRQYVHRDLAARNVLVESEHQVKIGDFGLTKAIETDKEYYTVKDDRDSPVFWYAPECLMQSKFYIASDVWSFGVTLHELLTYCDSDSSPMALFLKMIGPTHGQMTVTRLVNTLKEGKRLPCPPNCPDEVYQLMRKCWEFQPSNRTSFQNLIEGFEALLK
- EXPERIMENT NOTES: JAK kinase assay (HTRF, phosphorylation of TK substrate-biotin), JAK1
- Format: biochemical
- PROTOCOL CONDITIONS: HTRF assay, ATP at Km (7 μM); read-out: JAK1 kinase inhibitory activity (EC50 indicator)
The entries below come with measured EC50 values attached.

Would you kindly share the measured EC50 for O=C(c1cccc(OC(F)(F)F)c1)N1[C@@H]2CC[C@@H]1CN(c1ncnc3[nH]ccc13)C2 ?
< 100 nM

----------
The entries below come with measured EC50 values attached.
- TARGET: TYK2 (aa 871-1187, catalytic domain, GST-tag) (Homo sapiens, UniProt P29597)
- Construct: JAK1 (aa 850-1154) and TYK2 (aa 871-1187) are expressed with an N-terminally fused GST-tag; GST (N); purchased Carna Biosciences, Inc; host or cells: baculovirus expression system
- Sequence (P29597 871-1187): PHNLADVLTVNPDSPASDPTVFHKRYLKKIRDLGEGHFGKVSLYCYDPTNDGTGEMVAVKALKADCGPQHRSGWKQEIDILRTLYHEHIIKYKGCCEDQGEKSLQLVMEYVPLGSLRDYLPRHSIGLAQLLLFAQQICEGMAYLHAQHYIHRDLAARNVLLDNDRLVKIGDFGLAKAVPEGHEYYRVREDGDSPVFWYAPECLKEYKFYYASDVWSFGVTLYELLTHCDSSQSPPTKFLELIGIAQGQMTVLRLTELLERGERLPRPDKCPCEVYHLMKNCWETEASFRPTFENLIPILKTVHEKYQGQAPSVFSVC
- EXPERIMENT NOTES: JAK kinase assay (HTRF, phosphorylation of TK substrate-biotin), TYK2
- Format: biochemical
- PROTOCOL CONDITIONS: HTRF assay, ATP at Km (13 μM); read-out: TYK2 kinase inhibitory activity (EC50)

Would you kindly share the measured EC50 for CN(C1CCCCC1)S(=O)(=O)N1CCN(c2ncnc3[nH]ccc23)CC12CC2 [Example 460] ?
100 to 500 nM

---
Would you kindly share the measured EC50 for NS(=O)(=O)c1ccc(OCC(=O)N2CCN(c3ncnc4[nH]ccc34)CC23CC3)c(F)c1 [Example 434] ?
< 100 nM

Would you kindly share the measured EC50 for CN(CCC#N)S(=O)(=O)N1CCN(c2ncnc3[nH]ccc23)CC12CC2 [Example 458] ?
< 100 nM

Would you kindly share the measured EC50 for CC(C)(C)[S+]([O-])N1CCN(c2ncnc3[nH]ccc23)CC12CC2 (stereo not shown) [Example 449] ?
> 500 nM

Would you kindly share the measured EC50 for NS(=O)(=O)c1ccc(OCCC(=O)N2CCN(c3ncnc4[nH]ccc34)CC23CC3)cc1 [Example 452] ?
> 500 nM

Would you kindly share the measured EC50 for CCN(CC)S(=O)(=O)N1CCN(c2ncnc3[nH]ccc23)CC12CC2 [Example 459] ?
100 to 500 nM

Would you kindly share the measured EC50 for CCCCNC(=O)N1CCN(c2ncnc3[nH]ccc23)CC12CC2 [Example 444] ?
> 500 nM

Would you kindly share the measured EC50 for NS(=O)(=O)c1cnn(CCC(=O)N2CCN(c3ncnc4[nH]ccc34)CC23CC3)c1 [Example 435] ?
100 to 500 nM

Would you kindly share the measured EC50 for NS(=O)(=O)c1ccc(NCCC(=O)N2CCN(c3ncnc4[nH]ccc34)CC23CC3)cc1 [Example 453] ?
> 500 nM

Would you kindly share the measured EC50 for O=C(Oc1ccc(Cl)cc1)N1CCN(c2ncnc3[nH]ccc23)CC12CC2 [Example 446] ?
> 500 nM

Would you kindly share the measured EC50 for CN(C)CCC(=O)N1CCN(c2ncnc3[nH]ccc23)CC12CC2 [Example 457] ?
> 500 nM

Would you kindly share the measured EC50 for S=C(c1cc2c(s1)CCC2)N1CCN(c2ncnc3[nH]ccc23)CC12CC2 [Example 440] ?
100 to 500 nM

Would you kindly share the measured EC50 for S=C(COc1ccccc1)N1CCN(c2ncnc3[nH]ccc23)CC12CC2 [Example 448] ?
100 to 500 nM

Would you kindly share the measured EC50 for COCC(=S)N1CCN(c2ncnc3[nH]ccc23)CC12CC2 [Example 447] ?
100 to 500 nM

Would you kindly share the measured EC50 for COCCC(=O)N1CCN(c2ncnc3[nH]ccc23)CC12CC2 [Example 456] ?
> 500 nM

Would you kindly share the measured EC50 for N#Cc1ccc(CC(=S)N2CCN(c3ncnc4[nH]ccc34)CC23CC3)cc1 [Example 441] ?
< 100 nM

Would you kindly share the measured EC50 for O=C(COc1ccccc1)N1CCN(c2ncnc3[nH]ccc23)CC12CC2 [Example 442] ?
100 to 500 nM

Would you kindly share the measured EC50 for O=C(NCCc1ccccc1)N1CCN(c2ncnc3[nH]ccc23)CC12CC2 [Example 445] ?
> 500 nM

Would you kindly share the measured EC50 for NS(=O)(=O)c1ccc(NCC(=O)N2CCN(c3ncnc4[nH]ccc34)CC23CC3)cc1 [Example 454] ?
100 to 500 nM

Would you kindly share the measured EC50 for S=C(NC1CCCCC1)N1CCN(c2ncnc3[nH]ccc23)CC12CC2 [Example 437] ?
> 500 nM

Would you kindly share the measured EC50 for O=C(CNc1ccccc1)N1CCN(c2ncnc3[nH]ccc23)CC12CC2 [Example 451] ?
> 500 nM

Would you kindly share the measured EC50 for CSCCC(=O)N1CCN(c2ncnc3[nH]ccc23)CC12CC2 [Example 455] ?
100 to 500 nM
